System: IL-5
assayText: Measurement of IL-5 Levels in Human T Cells (IL-5 Assay)
Type: cell-based
testSettings: Human T cells (HUT 78), phorbol 12-myristate 13-acetate and anti-CD3, 32 hours, ELISA; read-out: IL-5 Inhibition IC50
metricName: IC50 (nM)

(I) Cc1nnsc1C(=O)Nc1ccc(-n2nc(C(F)(F)F)cc2C(F)(F)F)cc1
(II) O=C(Nc1ccc(Cl)cc1)c1ccc(-n2nc(C(F)(F)F)cc2C(F)(F)F)cc1
Which has the higher IC50, I or II ? # reply format: chosen label
II

* * *

Entries and their measured melting point follow.

Here are 5 compounds together with their reported answers.
compound: COC1CCCC(C(=O)Nc2ccc(-n3nc(C(F)(F)F)cc3C(F)(F)F)cc2)C1 (centres unmarked)
melting point: 145 to 147 °C
--
compound: O=C(Nc1ccc(-n2nc(C(F)(F)F)cc2C(F)(F)F)cc1)c1ccncc1
melting point: 156 to 157 °C
--
compound: O=C(Nc1cccc(-n2nc(C(F)(F)F)cc2C(F)(F)F)c1)c1cccc(Cl)c1Cl
melting point: 119 to 121 °C
--
compound: N#CCC(=O)Nc1ccc(-n2nc(C(F)(F)F)cc2C(F)(F)F)cc1
melting point: 140 to 143 °C
--
compound: CC(=O)Oc1ccccc1C(=O)Nc1ccc(-n2nc(C(F)(F)F)cc2C(F)(F)F)cc1
melting point: 159 to 161 °C

Query melting point for `Cn1cccc1C(=O)Nc1ccc(-n2nc(C(F)(F)F)cc2C(F)(F)F)cc1`
148 to 149 °C

Query melting point for `O=C(Nc1ccccc1[N+](=O)[O-])c1ccc(-n2nc(C(F)(F)F)cc2C(F)(F)F)cc1`
173 to 175 °C

Query melting point for `O=C(Nc1ccc(-n2nc(C(F)(F)F)cc2C(F)(F)F)cc1)C1CC1`
204 to 205 °C

Query melting point for `O=C(Nc1ccc(-n2nc(-c3ccoc3)cc2Cl)cc1)c1ccncc1F`
165 to 166 °C

Query melting point for `O=C(Nc1ccc(-n2nc(C(F)(F)F)cc2OC(F)F)cc1)c1cccc(F)c1F`
154 to 155 °C
